Where do the numbers come from? From FireProtDB (doi:10.1016/0022-2836(92)90563-y).

B1: Ribonuclease, P00648 (parent)
chain: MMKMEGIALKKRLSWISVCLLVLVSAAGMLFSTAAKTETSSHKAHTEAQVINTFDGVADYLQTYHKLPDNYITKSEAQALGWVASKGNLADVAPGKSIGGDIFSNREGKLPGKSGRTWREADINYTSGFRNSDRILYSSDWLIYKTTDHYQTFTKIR

Variants of: B1
Conditions: Bacillus amyloliquefaciens; pH 6.3; 25 °C; Urea; Fluorescence; MES 50 micro M; reversible: yes; structure 1BNI; whole UniProt chain shown
RECORDED ENDPOINT: ddG of mutation (higher = less stable)

Recorded ddG of mutation (higher = less stable), per entry:
[[record]]
variant_notation = "N131A"
reported_result = "2.02 kcal/mol"

[[record]]
variant_notation = "T63R"
reported_result = "-0.47 kcal/mol"


Turning to the following variant.
[ask] Supply measured ddG of mutation (higher = less stable) of `L80Q` in your reply.
[reply] 1.3 kcal/mol
